Tested on: A/PR/8/34 influenza virus
assayRemarks: microbe, parasite or virus in culture
Format: cell-based
conditionParameters: Influenza A virus, PR/8, MDCK, bDNA assay, A/PR/8/34 influenza virus replication in MDCK cells; class symbols; read-out: EC50 (mean all)
pEC50: −log10 of the molar value.
# pEC50 per entry

compound	pEC50
O[C@H]1[C@@H](O)CCC[C@H]1Nc1nc(-c2c[nH]c3ncc(Cl)cc23)ncc1F	> 5.30

Give pEC50 for CC(C)(C(=O)NC1CC1)N1CCC[C@H](Nc2nc(-c3c[nH]c4ncc(Cl)cc34)ncc2F)C1
> 5.30

---

# EC50 per entry
Test system: A/PR/8/34 influenza virus
assayRemarks: microbe, parasite or virus in culture
Assay type: cell-based
conditionParameters: bDNA assay, A/PR/8/34 influenza virus replication in MDCK cells; class symbols; read-out: EC50 (mean all)

molecule	EC50
Fc1cnc(-c2c[nH]c3ncc(Cl)cc23)nc1NC1CCCN(CC2CCCCO2)C1 (stereo not drawn) [Compound 663]	< 5 µM
CCNC(=O)OC1CCCC(Nc2nc(-c3c[nH]c4ncc(Cl)cc34)ncc2F)C1 (single isomer, unassigned) [Compound 609]	< 5 µM

Then there is this molecule:
# return EC50 for OC(CN1CCCC(Nc2nc(-c3c[nH]c4ncc(Cl)cc34)ncc2F)C1)C(F)(F)F (stereo not drawn) [Compound 614] , test system: A/PR/8/34 influenza virus
< 5 µM
